subject_of_test: SIRP-α human v1 (human) (UniProt P78324)
Sequence (P78324 31-149): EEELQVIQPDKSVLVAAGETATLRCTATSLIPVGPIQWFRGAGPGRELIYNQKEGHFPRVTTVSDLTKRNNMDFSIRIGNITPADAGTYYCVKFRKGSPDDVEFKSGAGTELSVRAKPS
assay_text: SPR, antibody on GLC chip, SIRP as analyte
pKd: −log10 of the molar value.
Measured pKd by item

- binder: "Anti-SIRP-α antibody 136, light chain Mut_S22T, heavy chain Mut (antibody, V domains shown) VH: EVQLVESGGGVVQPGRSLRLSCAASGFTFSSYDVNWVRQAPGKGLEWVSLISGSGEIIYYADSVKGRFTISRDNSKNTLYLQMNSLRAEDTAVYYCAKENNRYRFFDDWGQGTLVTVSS VL: EIVLTQSPGTLSLSPGERATLTCRASQSVYTYLAWYQQKPGQAPRLLIYGASSRATGIPDRFSGSGSGTEFTLTISSLQSEDFAVYYCQQYYDRPPLTFGGGTKVEIK"
  pKd: 8.30
- binder: "Anti-SIRP-α antibody 136, light chain Mut, heavy chain Mut (antibody, V domains shown) VH: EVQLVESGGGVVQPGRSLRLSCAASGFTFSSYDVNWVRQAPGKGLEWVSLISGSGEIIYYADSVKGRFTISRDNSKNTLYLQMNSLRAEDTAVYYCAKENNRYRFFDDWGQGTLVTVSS VL: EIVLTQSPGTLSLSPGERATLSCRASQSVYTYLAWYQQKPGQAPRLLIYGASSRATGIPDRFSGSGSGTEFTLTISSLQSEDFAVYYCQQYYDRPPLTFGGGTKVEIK"
  pKd: 8.14
- binder: "Anti-SIRP-α antibody 119, light chain wt, heavy chain Mut (antibody, V domains shown) VH: EVQLLESGGGVVQPGGSLRLSCAASGFSFSNFAVTWVRQAPGKGLEWVSTIGSGDTYYADSVKGRFTISRDNSKNTLYLQMNSLRAEDTAVYYCAKDSTVSWSGDFFDYWGQGTLVTVSS VL: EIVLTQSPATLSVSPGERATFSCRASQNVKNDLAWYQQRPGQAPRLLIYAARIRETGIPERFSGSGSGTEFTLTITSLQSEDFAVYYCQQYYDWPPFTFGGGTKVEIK"
  pKd: 9.60

Cited source for all entries: patent US20220096649A1
